Quick list: zone of inhibition at 5000 µg/mL per entry.
System: Escherichia coli
Experiment: Antimicrobial activity against Escherichia coli INCQS 00033 ATCC 25922 assessed as zone of inhibition at 5 mg/ml after 18 to 24 hrs by disc diffusion method
Assay type: functional
Conditions: ATCC 25922 INCQS 00033, read-out: IZ
Reply numerically in mm, unit not repeated.

NC1=C(Br)C(=O)c2ccccc2C1=O | 8
COC(=O)c1c(C)nc(C)c2c1C(=O)C=C(N)C2=O | 0
NC1=C(Cl)C(=O)c2ccccc2C1=O | 10
CO[C@@H]1O[C@H](CNC2=CC(=O)c3ccccc3C2=O)[C@H]2OC(C)(C)O[C@@H]12 | 0

Attention now turns to another entry.
Determine its reported zone of inhibition at 5000 µg/mL: `CO[C@@H]1O[C@H](CNC2=C(Br)C(=O)c3ccccc3C2=O)[C@H]2OC(C)(C)O[C@@H]12` 16

* * *

Quick list: MIC per entry.
Test system: Staphylococcus simulans
Test: Antimicrobial activity against Staphylococcus simulans INCQS 00254 ATCC 27851 after 24 hrs by microdilution assay
Format: functional
Conditions: INCQS 00254 ATCC 27851, 24 h

NC1=CC(=O)c2ccccc2C1=O | 64 µg/mL
NC1=C(Cl)C(=O)c2ccccc2C1=O | 128 µg/mL
COC(=O)c1c(C)nc(C)c2c1C(=O)C(Cl)=C(N)C2=O | 32 µg/mL
CN[C@H](CC(C)C)C(=O)N[C@H]1C(=O)N[C@@H](CC(N)=O)C(=O)N[C@H]2C(=O)N[C@H]3C(=O)N[C@H](C(=O)N[C@H](C(=O)O)c4cc(O)cc(O)c4-c4cc3ccc4O)[C@H](O)c3ccc(c(Cl)c3)Oc3cc2cc(c3O[C@@H]2O[C@H](CO)[C@@H](O)[C@H](O)[C@H]2O[C@H]2C[C@](C)(N)[C@H](O)[C@H](C)O2)Oc2ccc(cc2Cl)[C@H]1O [VANCOMYCIN] | 2 µg/mL

Attention now turns to another entry.
Determine its reported MIC: `NC1=C(Br)C(=O)c2ccccc2C1=O` 128 µg/mL

* * *

System: Staphylococcus aureus
Test: Antimicrobial activity against Staphylococcus aureus INCQS 00015 ATCC 25923 assessed as zone of inhibition at 5 mg/ml after 18 to 24 hrs by disc diffusion method
Type: functional
Conditions: read-out: IZ
Quick list: zone of inhibition at 5000 µg/mL per entry.
Reply numerically in mm, unit not repeated.

Sample answers from the record:
CN[C@H](CC(C)C)C(=O)N[C@H]1C(=O)N[C@@H](CC(N)=O)C(=O)N[C@H]2C(=O)N[C@H]3C(=O)N[C@H](C(=O)N[C@H](C(=O)O)c4cc(O)cc(O)c4-c4cc3ccc4O)[C@H](O)c3ccc(c(Cl)c3)Oc3cc2cc(c3O[C@@H]2O[C@H](CO)[C@@H](O)[C@H](O)[C@H]2O[C@H]2C[C@](C)(N)[C@H](O)[C@H](C)O2)Oc2ccc(cc2Cl)[C@H]1O | 16
COC(=O)c1c(C)nc(C)c2c1C(=O)C(Cl)=C(NC[C@H]1O[C@@H]3OC(C)(C)O[C@@H]3[C@H]1O)C2=O | 0
COC(=O)c1c(C)nc(C)c2c1C(=O)C(Br)=C(NC[C@H]1O[C@@H]3OC(C)(C)O[C@@H]3[C@H]3OC(C)(C)O[C@H]31)C2=O | 0
COC(=O)c1c(C)nc(C)c2c1C(=O)C=C(NC[C@H]1O[C@@H]3OC(C)(C)O[C@@H]3[C@H]1O)C2=O | 0

Attention now turns to another entry.
// fetch zone of inhibition at 5000 µg/mL; item: `COC(=O)c1c(C)nc(C)c2c1C(=O)C(Br)=C(NC[C@H]1O[C@@H](OC)[C@@H]3OC(C)(C)O[C@@H]31)C2=O` ; system: Staphylococcus aureus 13
